// reported IC50 per item
test system: Chinese hamster lung fibroblasts (V-79); test: DC(50)(light): colony-formation phototoxicity after laser irradiation; format: cell-based; conditions: V-79 cells; sensitizer incubation 16-24 hours; 12.5 mW/cm^2, total light dose 1.25 J/cm^2; concentration for lethal damage to 50% of cells

| compound | operator-symbol | IC50 [nM] |
| --- | --- | --- |
| C=Cc1c(C)c2[n]3c1=CC1=NC(=Cc4c(C)c5c([n]4[Sn]3([Cl])[Cl])C(=C3N=C(C=2)[C@@H](C)[C@@H]3CCC(=O)OC)CC5=O)C(CC)=C1C [Compound 23] | > | 1000 |
| CCC1=C(CC)C2=NC1=Cc1c(CC)c(CC)c3[n]1[In]([Cl])[n]1c(c(CC)c(CC)c1=c1cc(S(=O)(=O)NCC(=O)O)cc4c1=NC(=C3)C4(CC)CC)=C2 [Compound 20] | = | 40 |
| CCC1=C(CC)C2=NC1=Cc1c(CC)c(CC)c3[n]1[In]([Cl])[n]1c(c(CC)c(CC)c1=c1cc(S(=O)(=O)NCCOCCOCCOC)cc4c1=NC(=C3)C4(CC)CC)=C2 [Compound 16] | = | 40 |
| CCC1=C(CC)C2=NC1=Cc1c(CC)c(CC)c3[n]1[In]([Cl])[n]1c(c(CC)c(CC)c1=c1cc(S(=O)(=O)N(CCO)CCO)cc4c1=NC(=C3)C4(CC)CC)=C2 [Compound 12] | = | 40 |
| CCC1=C(CC)C2=NC1=Cc1c(CC)c(CC)c3[n]1[In]([Cl])[n]1c(c(CC)c(CC)c1=c1cc(S(=O)(=O)NCCCCCO)cc4c1=NC(=C3)C4(CC)CC)=C2 [Compound 13] | = | 40 |
| CCC1=C(CC)C2=NC1=Cc1c(CC)c(CC)c3[n]1[In]([Cl])[n]1c(c(CC)c(CC)c1=c1cc(S(=O)(=O)NCCN(C)C)cc4c1=NC(=C3)C4(CC)CC)=C2 [Compound 15] | = | 50 |

* * *

system: Chinese hamster lung fibroblasts (V-79); test: DC(50)(light): colony-formation phototoxicity after laser irradiation; format: cell-based; details: V-79 cells; sensitizer incubation 16-24 hours; 12.5 mW/cm^2, total light dose 1.25 J/cm^2; concentration for lethal damage to 50% of cells
pIC50: −log10 of the molar value.
measured-property: pIC50

| molecule | operator-symbol | assay-result |
| --- | --- | --- |
| CCC1=C(C)C2=NC1=Cc1c(C)c3c4[n]1[In]([Cl])[n]1c(c(C)c(C(C)=O)c1=C2)=CC1=NC(=C4CC3=O)[C@@H](CCC(=O)OC)[C@@H]1C | = | 7.22 |
| CCC1=C(CC)C2=NC1=Cc1c(CC)c(CC)c3[n]1[In]([Cl])[n]1c(c(CC)c(CC)c1=c1cc(S(=O)(=O)NC(CO)(CO)CO)cc4c1=NC(=C3)C4(CC)CC)=C2 | = | 7.40 |
| CCC1=C(C)C2=NC1=Cc1c(C)c3c4[n]1[Pd][n]1c(c(C)c(C(C)=O)c1=C2)=CC1=NC(=C4CC3=O)[C@@H](CCC(=O)OC)[C@@H]1C | = | 7.30 |
| CCC1=C(CC)C2=NC1=Cc1c(CC)c(CC)c3[n]1[In]([Cl])[n]1c(c(CC)c(CC)c1=c1cc(S(=O)(=O)NCCCS)cc4c1=NC(=C3)C4(CC)CC)=C2 | = | 7.40 |
| CCC1=C(CC)C2=NC1=Cc1c(CC)c(CC)c3[n]1[In]([Cl])[n]1c(c(CC)c(CC)c1=c1cc(S(=O)(=O)NCCCCC(N)C(=O)O)cc4c1=NC(=C3)C4(CC)CC)=C2 (stereo not shown) | = | 7.40 |
| CCC1=C(CC)C2=NC1=Cc1c(CC)c(CC)c3[n]1[In]([Cl])[n]1c(c(CC)c(CC)c1=c1cccc4c1=NC(=C3)C4(CC)CC)=C2 | = | 7.00 |
| CCC1=C(CC)c2cc3[nH]c(c(CC)c3CC)c3cccc4c3nc(cc3[nH]c(cc1n2)c(CC)c3CC)C4(CC)CC | < | 6.00 |
| CCC1=C(CC)C2=NC1=Cc1c(CC)c(CC)c3[n]1[Zn][n]1c(c(CC)c(CC)c1=c1cccc4c1=NC(=C3)C4(CC)CC)=C2 | < | 6.00 |

Data origin: patent US6444194B1
